Data provenance is patent US6727237B2.

Target: bacterial NAD synthetase enzyme (Bacillus subtilis, UniProt P08164)
Sequence (P08164 2-272 limits assumed): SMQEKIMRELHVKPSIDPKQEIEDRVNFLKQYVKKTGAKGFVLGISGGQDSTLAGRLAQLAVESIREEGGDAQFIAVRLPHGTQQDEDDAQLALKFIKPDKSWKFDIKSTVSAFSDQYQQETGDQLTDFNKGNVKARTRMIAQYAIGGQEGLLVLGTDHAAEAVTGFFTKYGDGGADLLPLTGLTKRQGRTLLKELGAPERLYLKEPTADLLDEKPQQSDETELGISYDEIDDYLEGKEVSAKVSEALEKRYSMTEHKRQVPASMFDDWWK
Assay: biochemical
Type: biochemical
Conditions: compound at 0.2 mM (Table 312A)
Below: a set of entries, each annotated with reported % Inhibition.
outcomeMeasure: % Inhibition (%)

1) C[n+]1cccc(C(=O)OCCCCCCn2ccc3ccccc32)c1	19.51
2) Fc1ccc2[nH]c(CCC[n+]3ccccc3)cc2c1	11.92
3) O=C(O)c1ccc2[nH]c(CCCCC[n+]3cccc4ccccc43)cc2c1	17.44
4) COc1ccc2[nH]c(CCCC[n+]3ccccc3)cc2c1	14.13
5) CCCCc1ccc2[nH]c(CCCCC[n+]3ccc4ccccc4c3)cc2c1	20.52
6) O=C(O)c1ccc2[nH]c(CCCCCCC[n+]3ccccc3)cc2c1	25.86
7) O=C(OCCCCc1cc2cc(C(F)(F)F)ccc2[nH]1)c1cccnc1	2.11
8) COc1ccc2[nH]c(CCCCC[n+]3cccc4ccccc43)cc2c1	17.07
9) FC(F)(F)c1ccc2cc(CCCCCCC[n+]3ccccc3)[nH]c2c1	44.36
